TARGET_OR_TEST_SYSTEM: recombinant homotrimeric HA, A/South Carolina/1/18 H1N1 (Influenza A virus A/South Carolina/1/18 (H1N1))
METHOD_NOTES: trimeric HA microarray, transfection set 3
COND: remark: other sources report otherwise
PARAMETER_MEASURED: Trimeric HA Binding RLU (RLU)
Answers are plain numbers, in RLU.

Lookup: Quick check: Trimeric HA Binding RLU of TCN-530 (5248_H10a) (antibody, V domains shown) VH: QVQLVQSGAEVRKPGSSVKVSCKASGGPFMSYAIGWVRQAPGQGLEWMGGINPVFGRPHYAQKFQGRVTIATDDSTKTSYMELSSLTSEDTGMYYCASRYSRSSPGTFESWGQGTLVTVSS VL: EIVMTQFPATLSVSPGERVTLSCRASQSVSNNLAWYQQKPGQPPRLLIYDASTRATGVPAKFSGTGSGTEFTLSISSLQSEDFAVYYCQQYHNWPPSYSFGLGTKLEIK ?
Found: 17200

// provenance: patent US20120207760A1
